system: pERK in ASPC1 cells; experiment: Inhibition of KRas phosphorylation of ERK (Cisbio HTRF pERK assay); details: Homo sapiens, ASPC1, read-out: Inhibition (HTRF IC50) of KRas-mediated Phosphorylation of ERK, AsPC-1
Quantity Measured: IC50 (nM)

Study these solved cases before continuing.
CC1(O)COCCN(c2nc(OC[C@@]34CCCN3C[C@H](F)C4)nc3c(F)c(-c4cc(O)cc5ccc(F)c(Br)c45)ncc23)C1 (stereo partly drawn) [Example 400]	27
Nc1cc2n(n1)CCCN(c1nc(OC[C@@]34CCCN3C[C@H](F)C4)nc3c(F)c(-c4cc(O)cc5ccc(F)c(Br)c45)ncc13)C2 [Example 408]	721
CCc1c(F)ccc2cc(O)cc(-c3ncc4c(N5CCCOC(C)(C)C5)nc(OC[C@@]56CCCN5C[C@H](F)C6)nc4c3F)c12 [Example 501]	2060

1 = C#Cc1c(F)ccc2cc(O)cc(-c3ncc4c(N5CCCC6(CNS(=O)(=O)N6)C5)nc(OC[C@@]56CCCN5C[C@H](F)C6)nc4c3F)c12 (stereo partly drawn) [Example 396]
2 = CCc1c(F)ccc2cc(O)cc(-c3ncc4c(N5CC6CCC(C6)C5)nc(OC[C@@]56CCCN5C[C@H](F)C6)nc4c3F)c12 [Example 350]
Please choose the item with the lower IC50 value from this pair: 1 and 2 Response format: the label of the selected entry.
2
